experiment: Single-point microsomal metabolic stability, human; type: in vitro ADME; settings: both sexes, human liver microsomes, 30 min, read-out: Microsomal metabolic stability (% remaining after 30 min) Human
property_label: remaining at 0.5 h, 1 µM

Sure, the documented remaining at 0.5 h, 1 µM for CS(=O)(=O)c1ccc(-c2cnc(N)c(-c3ccc(C(F)(F)F)nc3)c2)cc1 [MMV390048, reference compound] is > 95%

###

Provide the recorded EG (% inhibition) 5 µM for the entries that follow.
system: early-stage gametocytes (NF54-PfS16-GFP-Luc); assay: Luciferase reporter assay, early-stage gametocytes; type: cell-based, Plasmodium falciparum; conditions: 5 µM, single biological repeat
Please report the result as a number followed by the unit.

Cc1cccc(-c2cccc(C)n2)n1.OCCN(CCO)C(=S)N=C([O][Pt+])c1ccccc1.[Cl-]	43.9 % inhibition
CNC(=O)c1cc[n+]2c(c1)-c1cc(C(=O)NC)cc[n+]1[Pt-2]21[O+]=C(c2ccccc2)N=C(N(CCO)CCO)[S]1.[Cl-]	4.5 % inhibition
Cc1ccc(-c2ccc(C)cn2)nc1.OCCN(CCO)C(=S)N=C([O][Pt+])c1ccccc1.[Cl-]	0.0 % inhibition

Shifting focus to the compound that follows.
The reported value for COC(=O)c1cc[n+]2c(c1)-c1cc(C(=O)OC)cc[n+]1[Pt-2]21[O+]=C(c2ccccc2)N=C(N(CCO)CCO)[S]1.[Cl-] in terms of EG (% inhibition) 5 µM is 4.2 % inhibition
